# System: MS2 coat protein
# assayRemarks: apparent KD of MS2 coat protein, switch ON state; designed switch direction (-1 OFF switch, 1 ON switch): -1; higher = weaker reporter binding
# condition: FMN input: 0 or 200 uM; Eterna round: R93 (includes R88 designs)
assayEndpoint: apparent KD of MS2 coat protein (nM)

[[record]]
itemsequence = "AACUGACAUGAGGAUCACCCAUGUCAGGAUAUGACUUGACGAAAAAAAACAUGUCAUGUCAGAAGGGACAUGGA [Design 89: Sub-opt Z]"
recordedvalue = 26.4

[[record]]
itemsequence = "GGAAAACAUGAGGAUCACCCAUGUGAGGAUAUCCAGGAUAUAGAAGGAGGAUAUAGAAGGAGAAGGCACGAAGG [salish99-ex1-18]"
recordedvalue = 28.6

[[record]]
itemsequence = "GCUUGGCAAGGAUAUACAUGAGGAUCACCCAUGUGAGAGAAAAAAGUGAGAAAGAAAAGUAGAAGGUGUUGAGG [salish99-ex3-76]"
recordedvalue = 44.4

[[record]]
itemsequence = "AAAAAACAUGAGGAUCACCCAUGUCAGGAUAUCCGGAAAAAAAAAAAAAAAAGGCGUUGGAGAAGGGACAUUCC [Chica Displaced 8 - Jieux - Exclusion 1]"
recordedvalue = 28.7

[[record]]
itemsequence = "AACAGUACAGGAUAUACAUGAGGAUCACCCAUGUGAAAAUUAAGUGGGAAACCACAAUGUAGAAGGGUACUGGA [Mat - Exclusion 3 - Eli mod - D50]"
recordedvalue = 121

[[record]]
itemsequence = "AAAAAGUCAGGAUAUACGAAAGUGCGAAAGCACAAAAAGGGACAUGAGGAUCACCCAUGUAGAAGGGACAAGAA [Married to this design, 61% 3]"
recordedvalue = 45.2


* * *

# System: MS2 coat protein
# assayRemarks: apparent KD of MS2 coat protein; designed switch direction (-1 OFF switch, 1 ON switch): -1; higher = weaker reporter binding
# condition: Eterna round: R95; input ligand: none
assayEndpoint: apparent KD of MS2 coat protein (µM)

[[record]]
itemsequence = "AACAAUAAGGAGGAUAUCGUAUCGGAAACGAUACGAGAAGGCUUAACAUGAGGAUCACCCAUGUUCUUCAAUAA [Fiskers Ex 6 - 24] (puzzle: Exclusion 6)"
recordedvalue = 0.0177

[[record]]
itemsequence = "UUUUAACAUGAGGAUCACCCAUGUCAGGAUAUGGUUUUUUUUUUUUUUUUUUUUUUUUCCAGAAGGGACAUUUU [My solution] (puzzle: Exclusion 1)"
recordedvalue = 0.00388

[[record]]
itemsequence = "CCGAGGUGGCGGUCCUAUGACAUGAGGAUCACCCAUGUACCUCGCCACGAGCCUUUUGCUCAUCUUAUAAUUCUCGG [Bienve] (puzzle: Sensor v3, turn-off variant 1)"
recordedvalue = 0.0172


* * *

# System: MS2 coat protein
# assayRemarks: apparent KD of MS2 coat protein; designed switch direction (-1 OFF switch, 1 ON switch): 1; higher = weaker reporter binding
# condition: input ligand: FMN 200 uM
Decide using apparent KD of MS2 coat protein: a value greater than or equal to 60 nM is 1, a smaller one is -1.

[[record]]
itemsequence = "GCCAACUAAUGAGGAUAUGGCACCUUAUUGGUGCCAGAAGGCAUGUCAAUUGACAUGAGGAUCACCCAUGUAUUAUAGUUGGCA [Fiskers NG1ss - 33] (Eterna round: R96, puzzle: Same State NG 1)"
classname = 1

[[record]]
itemsequence = "GUACAUAUCAGAGGAUAUCACGUCGAUUAGACGUGAGAAGGCUGAUCACACAUGAAUAUUAAUACAUGAGGAUCACCCAUGUAC [SSNG1/13-A2] (Eterna round: R96, puzzle: Same State NG 1)"
classname = -1

[[record]]
itemsequence = "UCGGGCGUACUUGCUGACAUGAGGAUCACCCAUGUGUUUGGGAAGGAUAUGGUUCCGUUUCGGUUCCAGAAGGUCCUGGGUGCU [salish99_SSNG3_r04_314] (Eterna round: R96, puzzle: Same State NG 3)"
classname = 1

[[record]]
itemsequence = "AAGGGCGGAAACAACAUGAGGAUCACCCAUGUUGCCGAAAGGCAGGAUAUCCGGCGAAAGCAGAAGGAGAAGGGUCAAGAACCA [AK SSNG3-V2-42.1] (Eterna round: R96, puzzle: Same State NG 3)"
classname = -1

[[record]]
itemsequence = "CCAGCAUCACGAGGAUAUGGAGGUUCCCGAAAGACAUGAGGAUCACCCAUGUAUGUACGCCGCCUUCAGAAGGUGUAUAAGCGA [Eternabot solution 31] (Eterna round: R96, puzzle: Same State NG 2)"
classname = 1

[[record]]
itemsequence = "GAGUGGCAGUUAGGAUAUAUAGUGAUAAUCACAAUAGAAGGAACUGACAUGAGGAUCACCCAUGUAGGACUAAUCCAGAGAGAG [Parity 40 - Jieux - Same State NG 1] (Eterna round: R96, puzzle: Same State NG 1)"
classname = -1

[[record]]
itemsequence = "GCUCGAUGUGCUGUCUACAUGAGGAUCACCCAUGUAGAUGCGGAGGAUAUCUACGUGCUUUAUGUAGAGAAGGUCGUAUCGAGC [SameState NG3 #84] (Eterna round: R96, puzzle: Same State NG 3)"
classname = -1

[[record]]
itemsequence = "GUUACAUGAGGAUCACCCAUGUAUGUGUGGGAGUAAGUGUCUUAGGAUAUCUAGUAUGUAAUUUAAGAGAAGGAAGAUUGUUGU [JMF's solution 56] (Eterna round: R96, puzzle: Same State NG 3)"
classname = 1

[[record]]
itemsequence = "GUUACAUGAGGAUCACCCAUGUAUGUGUGGGAGUAAGUGUCUUAGGAUAUCUAUCAUUUAAUUCAAGAGAAGGAAGAUUGUUGU [JMF's solution 100] (Eterna round: R96, puzzle: Same State NG 3)"
classname = 1

[[record]]
itemsequence = "AACAAAUACACAGGAUAUACAGCGGCAGCCACUGUAGAAGGGUGGGCGGGUUCCAACAUGAGGAUCACCCAUGUACCCAAUAAA [Gerace] (Eterna round: R96, puzzle: Same State NG 1)"
classname = 1

[[record]]
itemsequence = "AAGAAAGACGCAGGAUAUCAGCGCAAACCGCACUGAGAAGGGUGAGACAUGAGGAUCACCCAUGUAACACGGCAAAACGCCGUG [Lausgeledi] (Eterna round: R96, puzzle: Same State NG 1)"
classname = 1

[[record]]
itemsequence = "ACGCCUAAACGGCGAAAACGACAUGAGGAUCACCCAUGUACACAGGAUAUCAGCCUGCAACAGGCUGAGAAGGGUGAACCUAAA [Atatmadiar] (Eterna round: R96, puzzle: Same State NG 3)"
classname = 1

[[record]]
itemsequence = "CCCAGGCAUGGAGGAUAUGGGAACAUGAGGAUCACCCAUGUUAACUCCGUAGGCGGCUUAAGGCACCAGAAGGCUACGGCUGGU [Eternabot solution 15] (Eterna round: R96, puzzle: Same State NG 2)"
classname = 1

[[record]]
itemsequence = "AUUGCUAUCACAGGAUAUCAUGCGAAAAUUGCGUGAGAAGGGUGGACUCUGUCAUUCACGGAGGACAUGAGGAUCACCCAUGUC [SameState NG1 #81] (Eterna round: R96, puzzle: Same State NG 1)"
classname = 1

[[record]]
itemsequence = "UAGUGCAUUAGAGGAUAUUCUUACGGAAACGGUAAGACAUGAGGAUCACCCAUGUUGUCACAUGGGAAGAAGGCUGAUGUGCUA [Omei SS(NG)2 Bv5] (Eterna round: R96, puzzle: Same State NG 2)"
classname = 1

[[record]]
itemsequence = "GCUCGAUGAGCUGUUUACAUGAGGAUCACCCAUGUAGAUGCGGAGGAUAUCUACGUGCUUUAUGUAGAGAAGGCCGUAUCGAGC [SameState NG3 #81] (Eterna round: R96, puzzle: Same State NG 3)"
classname = -1

[[record]]
itemsequence = "UAGGAACAUGAGGAUCACCCAUGUACCUCAUAUGGAGAAACACAGGAUAUACUUAGCGAAAGAGAGUAGAAGGGUGAAGAGAGG [Default title] (Eterna round: R96, puzzle: Same State NG 3)"
classname = -1

[[record]]
itemsequence = "CCCAGCGUUACAGGAUAUGGUGAGGAUCACCCACUAGAAGGGUAAACAUGUGCGUCGGACAUGAGGAUCACCCAUGUAGGGCGU (Eterna round: R96, puzzle: Same State NG 1)"
classname = -1


* * *

# Test system: MS2 coat protein
# assayRemarks: apparent KD of MS2 coat protein; designed switch direction (-1 OFF switch, 1 ON switch): -1; higher = weaker reporter binding
# condition: input ligand: none
assayEndpoint: apparent KD of MS2 coat protein (nM)

[[record]]
itemsequence = "GUUUACAAGCUAAGAUCCUACAUGAGGAUCACCCAUGUGGUCCGGUGACGUGAGUCACCGGACUUAGCUCGUCUUGG [salish99_S_TOV1_R5_090] (Eterna round: R97, puzzle: Sensor, turn-off variant 1)"
unitannotation = "nM"
recordedvalue = 66.7

[[record]]
itemsequence = "UAAUUAAAUGUAAGGAUAUGGCAAUGCGGUGGCAGUUAGAAGGUACAUGAGGAUCACCCAUGUGUGUAUCGUGA [Eternabot (L1) Solution 93] (Eterna round: R97, puzzle: Brourd's mod of Exclusion 4)"
unitannotation = "nM"
recordedvalue = 248

